biological target: NR1/NR2A (Homo sapiens (Human), UniProt Q05586+Q12879); experiment: FDSS Ca2+ influx inhibition assay in HEK293 cells expressing NR1/NR2A; assay type: cell-based; conditions: 3 μM glutamate, 3 μM glycine, 1 mM Ca2+, read-out: Binned Activity
Sequence (Q12879 23-1464, other chains not shown): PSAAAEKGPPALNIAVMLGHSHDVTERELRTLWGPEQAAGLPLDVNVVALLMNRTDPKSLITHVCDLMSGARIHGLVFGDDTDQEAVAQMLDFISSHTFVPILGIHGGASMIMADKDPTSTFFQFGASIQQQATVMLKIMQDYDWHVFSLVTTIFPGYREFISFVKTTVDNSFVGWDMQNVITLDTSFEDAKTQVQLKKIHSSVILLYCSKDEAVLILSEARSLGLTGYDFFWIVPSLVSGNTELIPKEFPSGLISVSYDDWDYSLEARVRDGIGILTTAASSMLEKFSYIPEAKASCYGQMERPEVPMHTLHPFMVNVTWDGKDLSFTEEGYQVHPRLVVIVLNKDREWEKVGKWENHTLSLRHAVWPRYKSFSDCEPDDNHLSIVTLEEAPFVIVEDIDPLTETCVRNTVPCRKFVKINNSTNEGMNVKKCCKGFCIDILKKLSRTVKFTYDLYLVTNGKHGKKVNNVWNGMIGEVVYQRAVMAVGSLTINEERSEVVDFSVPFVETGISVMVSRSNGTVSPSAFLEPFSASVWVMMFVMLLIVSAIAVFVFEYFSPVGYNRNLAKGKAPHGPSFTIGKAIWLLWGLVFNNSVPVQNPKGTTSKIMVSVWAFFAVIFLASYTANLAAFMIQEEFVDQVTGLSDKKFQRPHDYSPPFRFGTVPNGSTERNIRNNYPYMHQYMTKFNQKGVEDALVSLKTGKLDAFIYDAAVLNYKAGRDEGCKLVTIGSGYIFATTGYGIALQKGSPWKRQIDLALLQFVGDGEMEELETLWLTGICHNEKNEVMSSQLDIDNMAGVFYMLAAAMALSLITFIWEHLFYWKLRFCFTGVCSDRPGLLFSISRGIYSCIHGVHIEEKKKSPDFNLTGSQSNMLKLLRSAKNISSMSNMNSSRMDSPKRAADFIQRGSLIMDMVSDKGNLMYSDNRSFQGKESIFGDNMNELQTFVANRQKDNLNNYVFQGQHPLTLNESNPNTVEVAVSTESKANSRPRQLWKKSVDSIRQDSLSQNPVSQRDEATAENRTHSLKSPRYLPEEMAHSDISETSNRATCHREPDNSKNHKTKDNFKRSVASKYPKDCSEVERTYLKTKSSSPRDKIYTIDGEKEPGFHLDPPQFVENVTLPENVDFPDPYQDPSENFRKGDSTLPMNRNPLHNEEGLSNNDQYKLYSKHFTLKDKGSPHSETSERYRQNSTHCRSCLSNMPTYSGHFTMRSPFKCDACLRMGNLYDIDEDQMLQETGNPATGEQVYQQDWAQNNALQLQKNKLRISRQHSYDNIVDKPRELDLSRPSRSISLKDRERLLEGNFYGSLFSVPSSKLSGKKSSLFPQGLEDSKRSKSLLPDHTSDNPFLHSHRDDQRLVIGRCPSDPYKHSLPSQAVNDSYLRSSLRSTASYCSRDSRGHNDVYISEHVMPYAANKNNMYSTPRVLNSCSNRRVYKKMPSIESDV
pIC50: −log10 of the molar value.
reported.metric: pIC50

Here's what some known entries look like.
Field pIC50 (entry "Cc1ncc(CNC(=O)c2cnc(CNS(=O)(=O)c3ccccc3F)cn2)s1" ) reads < 5.00

# compound "COc1cccc(CNC(=O)c2ccc(CNS(=O)(=O)c3ccc(F)c(Cl)c3)nn2)c1" ; its pIC50 = < 5.00

Reported pIC50 ( "C[C@@H](NC(=O)c1ccc(CNS(=O)(=O)c2ccc(F)c(Cl)c2)nn1)c1cncs1" ) = < 5.00

The recorded pIC50 for "Cc1ncc(CNC(=O)c2ccc(CNS(=O)(=O)c3cn(C)cn3)cn2)s1" is < 5.00

Consider "Cc1ncc(CNC(=O)c2ccc(CNS(=O)(=O)c3ccsc3)cn2)s1" . Its measured pIC50 is < 5.00

// pIC50 value for "O=C(NCc1ncc(C(F)(F)F)cc1Cl)c1ccc(CNS(=O)(=O)c2ccc(F)c(Cl)c2)nc1" : < 5.00

Documented pIC50 of "Cc1ncsc1CNC(=O)c1ccc(CNS(=O)(=O)c2ccc(F)c(Cl)c2)cn1" : < 5.00

Lab note: measured pIC50 of "O=C(NCc1ccccn1)c1ccc(CNS(=O)(=O)c2ccc(F)c(Cl)c2)cn1" was < 5.00

Entry under test: "Cc1ncc(CNC(=O)c2ccc(CNS(=O)(=O)c3cccc(Cl)c3)cn2)s1" . Its pIC50 was 5.00 to 6.00

Lab book: pIC50 of "Cn1cnc(CNC(=O)c2ccc(CNS(=O)(=O)c3ccc(F)c(Cl)c3)nn2)c1" noted as < 5.00

More entries:
Notebook: "Cc1nnc(CNC(=O)c2ccc(CNS(=O)(=O)c3ccc(F)c(Cl)c3)nc2)o1" , pIC50 read as < 5.00

Looking up "Cc1ncc(CNC(=O)c2ccc(CNC(=O)c3ccc(Cl)cc3Cl)cn2)s1" , I found its pIC50 recorded as < 5.00

"Cc1csc(CNC(=O)c2ccc(CNS(=O)(=O)c3ccc(F)c(Cl)c3)nc2)n1" has a reported pIC50 of < 5.00

Recorded result, "Cc1ccc(CNC(=O)c2cnc(CNS(=O)(=O)c3ccc(F)c(Cl)c3)cn2)s1" , pIC50: < 5.00

Entry "Cn1cccc1CNC(=O)c1cnc(CNS(=O)(=O)c2ccc(F)c(Cl)c2)cn1" — recorded pIC50 = 5.00 to 6.00

CC(NC(=O)c1ccc(CNS(=O)(=O)c2ccc(F)c(Cl)c2)cn1)c1cccs1 (stereo not shown) has a reported pIC50 of 5.00 to 6.00

Note to self: pIC50 recorded for "Cc1nc(C)c(CNC(=O)c2ccc(CNS(=O)(=O)c3ccc(F)c(Cl)c3)nn2)s1" was < 5.00

For record "Cc1ncc(CNC(=O)c2cnc(CNS(=O)(=O)c3ccc(F)c(F)c3)cn2)s1" the listed pIC50 is 6.00 to 7.00
